# System: HEK293
# measurement.protocol: Cytotoxicity against human HEK293 cells after 48 hrs by MTT assay
# Type: cell-based
# condition.summary: HEK293, 48 h
property.measured: IC50 (µM)
I only need the number, in µM, no unit after it.

Guide cases for IC50, answers given:
- compound: "Cc1noc2c1N=C(c1cccs1)CC(c1cc(Cc3ccc(O)c(C4CC(c5cccs5)=Nc5c(C)noc5C4)c3)ccc1O)C2 (stereo not given)"
  IC50 [µM]: 10.3
- compound: "Cc1ccc(C2=Nc3c(C)noc3CC(c3cc(Cc4ccc(O)c(C5CC(c6ccc(C)cc6)=Nc6c(C)noc6C5)c4)ccc3O)C2)cc1 (stereo not given)"
  IC50 [µM]: 63.4
- compound: "Cc1noc2c1N=C(c1ccc([N+](=O)[O-])cc1)CC(c1cc(Cc3ccc(O)c(C4CC(c5ccc([N+](=O)[O-])cc5)=Nc5c(C)noc5C4)c3)ccc1O)C2 (stereo not given)"
  IC50 [µM]: 55.6

Problem: Write down the reported IC50 of Cc1noc2c1N=C(c1ccccc1O)CC(c1cc(Cc3ccc(O)c(C4CC(c5ccccc5O)=Nc5c(C)noc5C4)c3)ccc1O)C2 (stereo not given) , test system: HEK293.
Solution: 65.5

Problem: Write down the reported IC50 of COc1ccc(C2=Nc3c(C)noc3CC(c3cc(Cc4ccc(O)c(C5CC(c6ccc(OC)cc6)=Nc6c(C)noc6C5)c4)ccc3O)C2)cc1 (stereo not given) , test system: HEK293.
Solution: 57.4
